Numbers sourced from patent US10722520B2.

Molecular target: AmpC (PAE) (Pseudomonas aeruginosa)
Sequence (P24735 27-397): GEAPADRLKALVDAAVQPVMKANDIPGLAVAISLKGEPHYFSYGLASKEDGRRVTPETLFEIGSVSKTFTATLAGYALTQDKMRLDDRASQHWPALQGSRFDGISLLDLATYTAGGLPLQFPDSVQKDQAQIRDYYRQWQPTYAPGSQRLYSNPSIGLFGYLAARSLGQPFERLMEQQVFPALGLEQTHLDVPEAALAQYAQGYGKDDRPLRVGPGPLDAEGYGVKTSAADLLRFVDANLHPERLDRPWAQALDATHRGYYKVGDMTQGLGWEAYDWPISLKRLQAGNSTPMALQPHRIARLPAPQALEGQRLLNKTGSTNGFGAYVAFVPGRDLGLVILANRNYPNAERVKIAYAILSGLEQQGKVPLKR
Settings: read-out: IC50 β-lactamase AmpC (PAE); class (C); nitrocefin 200 μM, 30-min pre-incubation, enzyme 0.4 nM
Label Condition met when IC50 is strictly below 200 nM; otherwise label Condition not met.

| COMPOUND | LABEL |
| --- | --- |
| O=C1N2CC(n3ccc(-c4ncco4)n3)=CC(C2)N1OS(=O)(=O)[O-].[Na+] (centres unmarked) | Condition not met |
| C/C(=N/O)c1cnn(C2=CC3CN(C2)C(=O)N3OS(=O)(=O)[O-])c1.[Na+] (centres unmarked) | Condition met |
| O=C(O)C(F)(F)F.O=C1N2CC(n3ccc(CNc4nccs4)n3)=CC(C2)N1OS(=O)(=O)[O-].[Na+] (centres unmarked) | Condition met |
| O=C1N2CC(n3ccnn3)=CC(C2)N1OS(=O)(=O)[O-].[Na+] (centres unmarked) | Condition met |
| Cc1cc(C(N)=O)nn1C1=CC2CN(C1)C(=O)N2OS(=O)(=O)[O-].[Na+] (centres unmarked) | Condition not met |
| CN(C)C.NC(=O)CCc1nccn1C1=CC2CN(C1)C(=O)N2OS(=O)(=O)O (centres unmarked) | Condition not met |
| O=C([O-])CCc1cn(C2=CC3CN(C2)C(=O)N3OS(=O)(=O)[O-])nn1.[Na+].[Na+] (centres unmarked) | Condition not met |
| NCCNC(=O)Cc1ccn(C2=CC3CN(C2)C(=O)N3OS(=O)(=O)[O-])n1.O=C(O)C(F)(F)F.[Na+] (centres unmarked) | Condition not met |
